From: ChEMBL document CHEMBL1139561

Procedure summary: Area under curve concentration in mouse was determined
Format: ADME
Assay conditions: in vivo
# Lookup of reported AUC keyed by entry

These recorded examples may help you get a feel for the data.
CC(=O)NCn1cc(-c2ccc(C3=CCN(C(=O)CO)CC3)cc2)c(=O)o1 = 16.9 µg/h/mL
CC(=O)NCn1cc(-c2ccc(-c3ccncc3)cc2)c(=O)o1 = 56 µg/h/mL
CC(=O)NCn1cc(-c2ccc(C3=CCS(=O)(=O)CC3)cc2)c(=O)o1 = 19.4 µg/h/mL

Tell me the measured AUC of CC(=O)NCn1cc(-c2ccc(-c3ccc(C(=O)O)cc3)cc2)c(=O)o1 , please.
0.56 µg/h/mL

Reported AUC, molecule CC(=O)NCn1cc(-c2ccc(-c3cccnc3)cc2)c(=O)o1 : ____
41.1 µg/h/mL

====

Procedure summary: Maximum serum concentration in rat was determined
Format: ADME, organism-based
Measured quantity: Cmax

Tell me the measured Cmax of CC(=O)NCn1cc(-c2ccc(C3=CCN(C(=O)CO)CC3)cc2)c(=O)o1 , please.
1.9 µg/mL

====

Procedure summary: Maximum serum concentration in mouse was determined
Type: ADME, organism-based
Property: Cmax; scope: individual molecules
Quick note: give the figure in ng/mL, leave out the unit.

CC(=O)NCn1cc(-c2ccc(C3=CC[S+]([O-])CC3)cc2)c(=O)o1 (stereo not drawn) = 8300
CC(=O)NCn1cc(-c2ccc(C3=CCN(C(C)=O)CC3)cc2)c(=O)o1 = 2600
CC(=O)NCn1cc(-c2ccc(C3=CCN(C(=O)CO)CC3)cc2)c(=O)o1 = 22900

Look up Cmax: CC(=O)NCn1cc(-c2ccc(-c3cccnc3)cc2)c(=O)o1
15300

For CC(=O)NCn1cc(-c2ccc(-c3ccncc3)cc2)c(=O)o1 , what is its reported Cmax?
17700

====

Tested on: Staphylococcus aureus
Procedure summary: Minimum inhibition concentration against Staphylococcus aureus strains in presence of 16% calf serum
Type: functional
Threshold-based label: MIC under 8 µg/mL gives Satisfied, MIC not under 8 µg/mL gives Not satisfied.

Please review the entries below; each comes with its answer.
CC(=O)NCn1cc(-c2ccc(-c3ccc(OC(F)(F)F)cc3)cc2)c(=O)o1 = Satisfied
CSc1ccc(-c2ccc(-c3cn(CNC(C)=O)oc3=O)cc2)cc1 = Satisfied
COc1cc(-c2ccc(-c3cn(CNC(C)=O)oc3=O)cc2)cc(OC)c1OC = Satisfied
CC(=O)NCn1cc(-c2ccc(C3CCNCC3)cc2)c(=O)o1 = Not satisfied

Here is another compound to look at.
Identify whether the compound CC(=O)NCn1cc(-c2ccc(-c3cccc(C(=O)O)c3)cc2)c(=O)o1 records MIC below 8 µg/mL.
Not satisfied

====

Procedure summary: Half life for compound in mouse was determined
Type: ADME
Assay conditions: in vivo
Measured quantity: log10 half-life (log10 of the value in min)
For clarity, the numbers are log10 values of half-life expressed in min.

Example cases with answers are listed next.
CC(=O)NCn1cc(-c2ccc(-c3ccc(C(=O)O)cc3)cc2)c(=O)o1 = 0.93
CC(=O)NCn1cc(-c2ccc(C3=CCS(=O)(=O)CC3)cc2)c(=O)o1 = 1.09
CC(=O)NCn1cc(-c2ccc(-c3cccnc3)cc2)c(=O)o1 = 1.94

Which value of log10 half-life has been reported for CC(=O)NCn1cc(-c2ccc(C3=CCN(C(C)=O)CC3)cc2)c(=O)o1 in the records?
0.81

For the molecule CC(=O)NCn1cc(-c2ccc(C3=CC[S+]([O-])CC3)cc2)c(=O)o1 (stereo not drawn) , what log10 half-life is on record?
1.35

====

Procedure summary: Area under curve concentration in mouse was determined
Format: ADME
Assay conditions: in vivo
Measured quantity: AUC (µg/h/mL)
Give a bare numeral; the unit µg/h/mL is implied.

CC(=O)NCn1cc(-c2ccc(C3=CCN(C(C)=O)CC3)cc2)c(=O)o1 = 1.5

Item CC(=O)NCn1cc(-c2ccc(C3=CC[S+]([O-])CC3)cc2)c(=O)o1 (stereo not drawn) has what recorded AUC?
5.5

Which AUC value belongs to CC(=O)NCn1cc(-c2ccc(-c3cncnc3)cc2)c(=O)o1 ?
29.1

====

Listing of entries alongside the reported Cmax.
Procedure summary: Maximum serum concentration in mouse was determined
Type: ADME, organism-based
All answers are understood in ng/mL, so give the number only.

CC(=O)NCn1cc(-c2ccc(C3=CCS(=O)(=O)CC3)cc2)c(=O)o1 = 17700
CC(=O)NCn1cc(-c2ccc(-c3ccc(C(=O)O)cc3)cc2)c(=O)o1 = 1700

API: the following record is the query input.
Given CC(=O)NCn1cc(-c2ccc(-c3cncnc3)cc2)c(=O)o1 , state its recorded Cmax.
10400

====

Test system: Staphylococcus aureus
Procedure summary: Minimum inhibition concentration against Staphylococcus aureus strains in presence of 16% calf serum
Assay type: functional
Measured quantity: MIC (µg/mL)
Please respond with the number in µg/mL and leave the unit unwritten.

CC(=O)NCn1cc(-c2ccc(C3CCN(C(=O)OC(C)(C)C)CC3)cc2)c(=O)o1 = 8
CC(=O)NCn1cc(-c2ccc(-c3ccc[nH]3)cc2)c(=O)o1 = 8

Read the next record carefully.
Tell me the measured MIC of CC(=O)NCn1cc(-c2ccc(C3=CCN(C(=N)N)CC3)cc2)c(=O)o1 , please.
8

====

Property: half-life; scope: individual compounds
Procedure summary: Half life for compound in mouse was determined
Format: ADME
Assay conditions: in vivo
Field format: number, assumed min, no unit text.

# lookup: half-life of CC(=O)NCn1cc(-c2ccc(-c3cncnc3)cc2)c(=O)o1
103

I am curious: what half-life value has been reported for CC(=O)NCn1cc(-c2ccc(-c3ccncc3)cc2)c(=O)o1 ?
203

Item under review: CC(=O)NCn1cc(-c2ccc(C3=CCN(C(=O)CO)CC3)cc2)c(=O)o1 . Reported half-life?
23.5
